# PROTOCOL SUMMARY: Cytotoxicity against rat NRK cells assessed as cell survival rate at 50 uM incubated for 48 hrs by MTT assay relative to control
# Format: toxicity, cell-based
# CONDITION SET: read-out: Survival
VALUE KIND: viability at 48 h, 50 µM (%)
// units = %; emit number, no label

Challenge: Consider the compound `CN1C[C@H](c2ccccc2)[C@]2(CCC/C(=C\c3ccccc3)C2=O)[C@]12C(=O)c1cccc3cccc2c13` and give its measured viability at 48 h, 50 µM.
Response given: 94

* * *

# PROTOCOL SUMMARY: Cytotoxicity against human PDL cells assessed as cell viability at 50 uM incubated for 48 hrs by MTT assay
# Type: toxicity, cell-based
VALUE KIND: Activity

- CN1C[C@H](c2ccccc2)[C@]2(CCC/C(=C\c3ccccc3)C2=O)[C@]12C(=O)Nc1ccc(Cl)cc12: Non-Toxic
- CN1C[C@H](c2ccccc2)C2(CN(C(=O)OC(C)(C)C)C/C(=C\c3ccccc3)C2=O)[C@]12C(=O)c1cccc3cccc2c13 (single isomer, unassigned): Non-Toxic
- CN1C[C@H](c2ccccc2)[C@]2(COC/C(=C\c3ccccc3)C2=O)[C@]12C(=O)Nc1ccccc12: Non-Toxic
- CN1C[C@H](c2ccccc2)[C@]2(COC/C(=C\c3ccccc3)C2=O)[C@]12C(=O)Nc1ccc(Cl)cc12: Non-Toxic

Challenge: Consider the molecule `CN1C[C@H](c2ccccc2)[C@]2(CN(C(=O)OC(C)(C)C)C/C(=C\c3ccccc3)C2=O)[C@]12C(=O)Nc1ccc(F)cc12` and give its measured Activity.
Response given: Non-Toxic

Challenge: Fill in the blank: the reported Activity of `CN1C[C@H](c2ccccc2)[C@H](C(=O)/C=C/c2ccccc2)[C@]12C(=O)Nc1ccc(F)cc12` is ____.
Response given: Toxic

Challenge: Any idea what its Activity is? The molecule is `CN1C[C@H](c2ccccc2)[C@H](C(=O)/C=C/c2ccccc2)[C@]12C(=O)Nc1ccccc12`
Response given: Toxic
